Data provenance: patent US20240400614A1

The entries below come with measured % cleavage uPA t = 60 min values attached.
- system-under-test: uPA (Homo sapiens, UniProt P00749)
- method: FRET peptide cleavage efficiency with uPA
- Type: biochemical
- protocol-conditions: t = 60 min; standard conditions (Table 8)
Square brackets hold non-standard residues; d marks the D form. Ends that are not written are not given here. Tyr(3-NO2) = N[C@@H](Cc1ccc(O)c([N+](=O)[O-])c1)C(=O)O; Nle = CCCC[C@H](N)C(=O)O; 2Abz = Nc1ccccc1C(=O)O

{"columns": ["substance", "% cleavage uPA t = 60 min"],
 "data": [
  ["RQRKVANLVG ([2Abz]RQRKVANLVG[Tyr(3-NO2)]-NH2) [LNK032]", "0%"],
  ["RGRRGP ([2Abz]RGRRGP[Tyr(3-NO2)]-NH2) [LNK048]", "0%"],
  ["RGRKSPQPLVD ([2Abz]RGRKSPQPLVD[Tyr(3-NO2)]-NH2) [LNK040]", "0%"],
  ["SGRVQPLVD (not fully specified (N-terminus, C-terminus)) [LNK047]", "1%"],
  ["RGRKPY-Nle-LQG ([2Abz]RGRKPY[Nle]LQG[Tyr(3-NO2)]-NH2) [LNK036]", "0%"],
  ["SGRVAPQPLVD (not fully specified (N-terminus, C-terminus)) [LNK046]", "4%"],
  ["SGRVAPYMLQG ([2Abz]SGRVAPYMLQG[Tyr(3-NO2)]-NH2) [LNK042]", "6%"],
  ["RGRKSPY-Nle-LQG ([2Abz]RGRKSPY[Nle]LQG[Tyr(3-NO2)]-NH2) [LNK038]", "0%"],
  ["RGRKVANLVG ([2Abz]RGRKVANLVG[Tyr(3-NO2)]-NH2) [LNK031]", "1%"],
  ["RGRKPYMLQG ([2Abz]RGRKPYMLQG[Tyr(3-NO2)]-NH2) [LNK035]", "0%"],
  ["RGRKSQPLVD ([2Abz]RGRKSQPLVD[Tyr(3-NO2)]-NH2) [LNK041]", "0%"],
  ["SGRVYMLQG ([2Abz]SGRVYMLQG[Tyr(3-NO2)]-NH2) [LNK044]", "0%"],
  ["RGRKSPANLVG ([2Abz]RGRKSPANLVG[Tyr(3-NO2)]-NH2) [LNK034]", "0%"],
  ["RGRRVANLVG ([2Abz]RGRRVANLVG[Tyr(3-NO2)]-NH2) [LNK033]", "2%"],
  ["RGRKSPYMLQG ([2Abz]RGRKSPYMLQG[Tyr(3-NO2)]-NH2) [LNK037]", "0%"],
  ["SGRVAPY-Nle-LQG ([2Abz]SGRVAPY[Nle]LQG[Tyr(3-NO2)]-NH2) [LNK043]", "0%"],
  ["RGRKPQPLVD ([2Abz]RGRKPQPLVD[Tyr(3-NO2)]-NH2) [LNK039]", "0%"]
]}

###

- system-under-test: MMP-9 (Homo sapiens, UniProt P14780)
- Construct: purchased SIGMA PF024
- Sequence (P14780 94-707): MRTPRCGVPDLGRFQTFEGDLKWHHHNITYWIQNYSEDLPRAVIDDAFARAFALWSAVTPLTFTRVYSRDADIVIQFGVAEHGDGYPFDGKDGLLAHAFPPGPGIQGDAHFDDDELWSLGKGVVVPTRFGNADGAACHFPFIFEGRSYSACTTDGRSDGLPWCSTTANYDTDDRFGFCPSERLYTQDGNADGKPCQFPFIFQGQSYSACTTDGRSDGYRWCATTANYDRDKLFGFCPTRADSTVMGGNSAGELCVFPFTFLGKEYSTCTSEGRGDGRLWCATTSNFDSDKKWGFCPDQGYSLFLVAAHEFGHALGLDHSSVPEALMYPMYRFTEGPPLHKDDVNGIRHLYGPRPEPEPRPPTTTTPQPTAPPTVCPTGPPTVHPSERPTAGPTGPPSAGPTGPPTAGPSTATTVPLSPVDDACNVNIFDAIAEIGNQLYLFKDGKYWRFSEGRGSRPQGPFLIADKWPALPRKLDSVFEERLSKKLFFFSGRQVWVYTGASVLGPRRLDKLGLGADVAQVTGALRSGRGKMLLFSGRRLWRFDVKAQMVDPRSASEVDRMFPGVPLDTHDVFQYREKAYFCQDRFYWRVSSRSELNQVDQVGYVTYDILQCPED
- method: FRET peptide cleavage efficiency with MMP-9 (standard pH 7.5; also pH 6.5)
- Type: biochemical
- protocol-conditions: t = 15 min; standard conditions (Table 8)
Square brackets hold non-standard residues; d marks the D form. Ends that are not written are not given here. Tyr(3-NO2) = N[C@@H](Cc1ccc(O)c([N+](=O)[O-])c1)C(=O)O; Nle = CCCC[C@H](N)C(=O)O; 2Abz = Nc1ccccc1C(=O)O
metric: % cleavage MMP-9 t = 15 min

{"columns": ["substance", "system-under-test", "result"],
 "data": [
  ["RGRKPQPLVD ([2Abz]RGRKPQPLVD[Tyr(3-NO2)]-NH2) [LNK039]", "MMP-9 (Homo sapiens, UniProt P14780)", "25%"],
  ["RGRKSPQPLVD ([2Abz]RGRKSPQPLVD[Tyr(3-NO2)]-NH2) [LNK040]", "MMP-9 (Homo sapiens, UniProt P14780)", "25%"],
  ["RQRKVANLVG ([2Abz]RQRKVANLVG[Tyr(3-NO2)]-NH2) [LNK032]", "MMP-9 (Homo sapiens, UniProt P14780)", "53%"],
  ["RGRRVANLVG ([2Abz]RGRRVANLVG[Tyr(3-NO2)]-NH2) [LNK033]", "MMP-9 (Homo sapiens, UniProt P14780)", "81%"],
  ["RGRKSPY-Nle-LQG ([2Abz]RGRKSPY[Nle]LQG[Tyr(3-NO2)]-NH2) [LNK038]", "MMP-9 (Homo sapiens, UniProt P14780)", "23%"]
]}

###

Catalogue of sequences with associated % cleavage MMP-2 t = 60 min
- system-under-test: MMP-2 (Homo sapiens)
- Construct: purchased SIGMA PF023
- Sequence (P08253 110-660): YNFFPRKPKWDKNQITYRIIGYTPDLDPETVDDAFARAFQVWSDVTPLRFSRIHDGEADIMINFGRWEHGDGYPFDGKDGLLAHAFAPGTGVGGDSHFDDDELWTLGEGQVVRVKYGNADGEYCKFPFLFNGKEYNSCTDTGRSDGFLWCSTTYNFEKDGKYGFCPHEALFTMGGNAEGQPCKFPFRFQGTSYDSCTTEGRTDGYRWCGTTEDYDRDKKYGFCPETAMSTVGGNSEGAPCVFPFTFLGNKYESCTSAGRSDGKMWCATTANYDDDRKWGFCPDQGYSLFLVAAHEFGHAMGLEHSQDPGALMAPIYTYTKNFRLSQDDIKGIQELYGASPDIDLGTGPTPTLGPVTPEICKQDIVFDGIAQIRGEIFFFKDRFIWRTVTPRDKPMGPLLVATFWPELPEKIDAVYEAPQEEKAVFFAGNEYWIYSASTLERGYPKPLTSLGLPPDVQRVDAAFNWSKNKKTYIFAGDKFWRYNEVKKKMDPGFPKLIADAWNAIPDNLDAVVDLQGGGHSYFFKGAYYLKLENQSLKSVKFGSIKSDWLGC
- method: FRET peptide cleavage efficiency with MMP-2
- Type: biochemical
- protocol-conditions: t = 60 min; 200 uM linker, 1 ug/ml protease, 37° C., buffer C pH 7.5
Square brackets hold non-standard residues; d marks the D form. Ends that are not written are not given here. Tyr(3-NO2) = N[C@@H](Cc1ccc(O)c([N+](=O)[O-])c1)C(=O)O; 2Abz = Nc1ccccc1C(=O)O

{"columns": ["entry-sequence", "unit-annotation", "% cleavage MMP-2 t = 60 min"],
 "data": [
  ["RGRRPLGLAGGSG ([2Abz]RGRRPLGLAGGSG[Tyr(3-NO2)]-NH2) [LNK051]", "%", 100],
  ["SSLQSSPG ([2Abz]SSLQSSPG[Tyr(3-NO2)]-NH2) [LNK066]", "%", 5],
  ["KWGKSAPLGLAG ([2Abz]KWGKSAPLGLAG[Tyr(3-NO2)]-NH2) [LNK026]", "%", 98],
  ["RGRRVANYFGKL ([2Abz]RGRRVANYFGKL[Tyr(3-NO2)]-NH2) [LNK055]", "%", 100],
  ["SGRVLGPLNLSG ([2Abz]SGRVLGPLNLSG[Tyr(3-NO2)]-NH2) [LNK008]", "%", 99]
]}

###

- system-under-test: MMP-2 (Homo sapiens)
- Construct: purchased SIGMA PF023
- Sequence (P08253 110-660): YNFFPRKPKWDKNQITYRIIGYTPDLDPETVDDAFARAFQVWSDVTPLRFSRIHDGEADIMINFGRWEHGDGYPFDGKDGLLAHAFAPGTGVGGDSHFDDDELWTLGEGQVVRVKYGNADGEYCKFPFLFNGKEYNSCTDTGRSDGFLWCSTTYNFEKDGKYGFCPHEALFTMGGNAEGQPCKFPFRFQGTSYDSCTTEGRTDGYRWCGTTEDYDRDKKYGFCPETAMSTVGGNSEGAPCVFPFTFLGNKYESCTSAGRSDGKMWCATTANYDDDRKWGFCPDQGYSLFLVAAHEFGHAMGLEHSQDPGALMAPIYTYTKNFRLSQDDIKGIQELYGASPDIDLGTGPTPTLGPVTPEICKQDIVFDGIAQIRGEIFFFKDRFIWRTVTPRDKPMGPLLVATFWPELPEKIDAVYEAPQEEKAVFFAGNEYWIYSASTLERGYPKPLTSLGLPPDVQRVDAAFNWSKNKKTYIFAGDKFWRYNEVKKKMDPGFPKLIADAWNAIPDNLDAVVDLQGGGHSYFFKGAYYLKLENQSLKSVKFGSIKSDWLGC
- method: FRET peptide cleavage efficiency with MMP-2
- Assay type: biochemical
- protocol-conditions: t = 120 min; 200 uM linker, 1 ug/ml protease, 37° C., buffer C pH 7.5
Square brackets hold non-standard residues; d marks the D form. Ends that are not written are not given here. Tyr(3-NO2) = N[C@@H](Cc1ccc(O)c([N+](=O)[O-])c1)C(=O)O; Nle = CCCC[C@H](N)C(=O)O; 2Abz = Nc1ccccc1C(=O)O
metric: % cleavage MMP-2 t = 120 min (%)

{"columns": ["substance", "system-under-test", "recorded-number"],
 "data": [
  ["RGRRVANPLGLAGSG ([2Abz]RGRRVANPLGLAGSG[Tyr(3-NO2)]-NH2) [LNK050]", "MMP-2 (Homo sapiens)", 100],
  ["RQRRS-Nle-PLGLAG ([2Abz]RQRRS[Nle]PLGLAG[Tyr(3-NO2)]-NH2) [LNK025]", "MMP-2 (Homo sapiens)", 98],
  ["KLFSSKQ ([2Abz]KLFSSKQ[Tyr(3-NO2)]-NH2) [LNK072]", "MMP-2 (Homo sapiens)", 25],
  ["GSSVYSGR ([2Abz]GSSVYSGR[Tyr(3-NO2)]-NH2) [LNK080]", "MMP-2 (Homo sapiens)", 5],
  ["ISQYSSAT ([2Abz]ISQYSSAT[Tyr(3-NO2)]-NH2) [LNK070]", "MMP-2 (Homo sapiens)", 0]
]}
